# test system: Chymotrypsinogen A (Bos taurus)
# protocol: Evaluation of kinetic parameter Ki/KI(1/M.1/S) by its ability to inhibit the Alpha-CT (Bovine alpha-chymotrypsin) enzyme
Hi there, I'd appreciate the recorded Ki/KI for every entry that follows.
One number for each entry, in M⁻¹ s⁻¹.

Observe how each entry below is paired with its result.
Documented Ki/KI of Cc1cncc(OC(=O)c2cc3cc(CCl)ccc3oc2=O)c1 : 2500

Documented Ki/KI of Cc1ccc(OC(=O)c2cc3cc(CCl)ccc3oc2=O)cn1 : 1000

Documented Ki/KI of O=C(Oc1ccccn1)c1cc2cc(CCl)ccc2oc1=O : 1670

Documented Ki/KI of O=C(Oc1cccnc1[N+](=O)[O-])c1cc2cc(CCl)ccc2oc1=O : 4500

State recorded Ki/KI for all listed compounds.
1. O=C(Oc1cccc(Cl)n1)c1cc2cc(CCl)ccc2oc1=O
2. Cc1ccc(OC(=O)c2cc3cc(CCl)ccc3oc2=O)c([N+](=O)[O-])n1

1. 107000
2. 1500

---

Hi there, I'd appreciate the recorded log10 Ki/KI for every entry that follows.
# test system: Neutrophil elastase (Homo sapiens)
# protocol: Evaluation of kinetic parameter Ki/KI(1/M.1/S) by its ability to inhibit the HLE(Human Leukocyte Elastase) enzyme.
# values: log10(Ki/KI), units M⁻¹ s⁻¹

Per the reported Neutrophil elastase (Homo sapiens) data, NCc1ccc2oc(=O)c(C(=O)Oc3cncc(Cl)c3)cc2c1 has log10 Ki/KI of 3.96

Per the reported Neutrophil elastase (Homo sapiens) data, O=C(Oc1cccnc1Cl)c1cc2cc(CCl)ccc2oc1=O has log10 Ki/KI of 3.52

Per the reported Neutrophil elastase (Homo sapiens) data, O=C(Oc1cccnc1[N+](=O)[O-])c1cc2cc(CCl)ccc2oc1=O has log10 Ki/KI of 3.60

Per the reported Neutrophil elastase (Homo sapiens) data, O=C(Oc1cncc(Cl)c1)c1cc2cc(Br)ccc2oc1=O has log10 Ki/KI of 4.76

Per the reported Neutrophil elastase (Homo sapiens) data, O=C(Oc1ccc(Cl)cn1)c1cc2cc(CCl)ccc2oc1=O has log10 Ki/KI of 2.04

State recorded log10 Ki/KI for all listed compounds.
1. CC(C)(C)C(=O)OCc1ccc2oc(=O)c(C(=O)Oc3cncc(Cl)c3)cc2c1
2. O=C(Oc1cncc(Cl)c1)c1cc2ccccc2oc1=O
3. CC(=O)OCc1ccc2oc(=O)c(C(=O)Oc3cncc(Cl)c3)cc2c1

1: 4.98; 2: 4.52; 3: 5.03

State recorded log10 Ki/KI for all listed compounds.
1. O=C(Oc1cccc(Cl)n1)c1cc2cc(CCl)ccc2oc1=O
2. Cc1cccc(OC(=O)c2cc3cc(CCl)ccc3oc2=O)n1
3. CCC(=O)OCc1ccc2oc(=O)c(C(=O)Oc3cncc(Cl)c3)cc2c1

[4.41, 2.30, 4.79]
